# Assay Notes: In vitro photo-release and hydrolytic release of dicamba in an aqueous medium (Example 36)
# Format: physicochemical
# Measurement Conditions: 0.01 mM (0.005 mM for diesters), quartz tube, Day 0
Listed below: Conversion to Dicamba, Light, Day 0 values for each entry.
Please give a number only; it is taken to be in %.

Record request: Conversion to Dicamba, Light, Day 0 value, item COc1ccc(COC(=O)c2c(Cl)ccc(Cl)c2OC)cc1 [Ester 29a, 4-methoxybenzyl ester of dicamba]
27

Record: COc1c(Cl)ccc(Cl)c1C(=O)Oc1ccc(=O)n(CCC#N)n1 [Ester 34a]
3

Others:
Record request: Conversion to Dicamba, Light, Day 0 value, item COc1c(Cl)ccc(Cl)c1C(=O)Oc1ccc(=O)n(CCC=O)n1 [Ester 33a]
13

Record: COc1c(Cl)ccc(Cl)c1C(=O)Oc1nc(C(C)(C)C)cc(C(C)(C)C)c1C#N [Ester 36a]
20

---

# Assay Notes: In vitro photo-release and hydrolytic release of dicamba in an aqueous medium (Example 35)
# Type: physicochemical
# Measurement Conditions: 0.01 mM ester, quartz tube, 14-hour day, 35° C., Day 14
# Method: This Example describes the determination of photo-lability and hydrolytic lability of dicamba esters in an aqueous medium. 1 mM solutions of the esters were prepared in acetonitrile (or […] solutions of dicamba diesters). The solutions were then diluted with deionized water to a concentration of 0.01 mM (or 0.005 mM for diesters). […] Hydrolytic activity was assessed by measuring the increase in dicamba concentration after day zero in the amber (dark) bottles. […]
Listed below: Conversion to Dicamba, Light, Day 14 values for each entry.
Please give a number only; it is taken to be in %.

Record request: Conversion to Dicamba, Light, Day 14 value, item COc1c(Cl)ccc(Cl)c1C(=O)OCc1ccccc1[N+](=O)[O-]
54

---

# Assay Notes: In vitro photo-release and hydrolytic release of dicamba in an aqueous medium (Example 35)
# Format: physicochemical
# Measurement Conditions: 0.01 mM ester, quartz tube, 14-hour day, 35° C., Day 1
Observation Type: Conversion to Dicamba, Light, Day 1 (%)
Please give a number only; it is taken to be in %.

See these solved cases before continuing.
Record request: Conversion to Dicamba, Light, Day 1 value, item COc1c(Cl)ccc(Cl)c1C(=O)Oc1ccc(=O)n(CCC(C)=O)n1 [Ester 32a]
14

Record: COc1c(Cl)ccc(Cl)c1C(=O)OCCc1ccccc1[N+](=O)[O-] [Ester 2, 2-Nitrophenethyl Ester of Dicamba]
78

Record: COc1c(Cl)ccc(Cl)c1C(=O)OCc1ccccc1[N+](=O)[O-] [Ester 1a, 2-Nitrobenzyl Ester of Dicamba]
13

Others:
Record request: Conversion to Dicamba, Light, Day 1 value, item COc1c(Cl)ccc(Cl)c1C(=O)Oc1cnc2ccccc2n1 [Ester 13a, 2-quinoxalinol ester of dicamba]
9

---

Listed below: Conversion to Dicamba, Dark, Day 7 values for each entry.
# Assay Notes: In vitro photo-release and hydrolytic release of dicamba in an aqueous medium (Example 35)
# Assay type: physicochemical
# Measurement Conditions: 0.01 mM ester, amber (dark) bottle, 35° C., Day 7
Please give a number only; it is taken to be in %.

See these solved cases before continuing.
Record request: Conversion to Dicamba, Dark, Day 7 value, item COc1c(Cl)ccc(Cl)c1C(=O)OCc1ccccc1[N+](=O)[O-]
8

Record: COc1c(Cl)ccc(Cl)c1C(=O)Oc1ccc(=O)n(CCC(C)=O)n1 [Ester 32a]
34

Record: COc1c(Cl)ccc(Cl)c1C(=O)Oc1cnc2ccccc2n1 [Ester 13a, 2-quinoxalinol ester of dicamba]
9

Others:
Record request: Conversion to Dicamba, Dark, Day 7 value, item COc1c(Cl)ccc(Cl)c1C(=O)OCCc1ccccc1[N+](=O)[O-]
3
